# Test name: in vivo
# Assay conditions: Sprague-Dawley, rat, po, 3 mg/kg
Experimental endpoint: AUC(0-t) (ng·h/mL)

{"Compound": "CCn1cc(C(=O)O)c2ccc(N3CCC(F)(COCc4c(-c5c(F)cccc5Cl)noc4C4CC4)CC3)cc21", "Data value": 103}

1: Cn1cc(C(=O)O)c2ccc(N3CCC(OCc4c(-c5c(Cl)cccc5Cl)noc4C4CC4)CC3)cc21 [TERN-101]
2: O=C(O)c1cc(F)c2nc(N3C4CCC3CC(F)(COCc3c(-c5ccccc5OC(F)(F)F)noc3C3CC3)C4)sc2c1 (stereo not drawn)
[ask] Between these two entries, 1 and 2 , state which has the higher AUC(0-t). Please respond with the label that marks your chosen entry.
[reply] 2
(2: 1860 ng·h/mL, 1: 195 ng·h/mL)

###

# Test name: in vivo
# Assay conditions: Sprague-Dawley, rat, po, 3 mg/kg
Experimental endpoint: bioavailability (%)

A: Cn1cc(C(=O)O)c2ccc(N3CCC(OCc4c(-c5c(Cl)cccc5Cl)noc4C4CC4)CC3)cc21 [TERN-101]
B: CCn1cc(C(=O)O)c2ccc(N3CCC(F)(COCc4c(-c5c(F)cccc5Cl)noc4C4CC4)CC3)cc21
[ask] Looking only at measured bioavailability, which entry is lower, A or B ? Could you answer with the label of the item you picked?
[reply] B

###

# Test name: in vivo
# Assay conditions: Sprague-Dawley, rat, liver, po, 3 mg/kg
Experimental endpoint: concentration at 1 h (ng/mL)

{"Compound": "O=C(O)c1cc(F)c2nc(N3CCC(F)(COCc4c(-c5c(F)cccc5Cl)noc4C4CC4)CC3)sc2c1", "Readout units": "ng/mL", "concentration at 1 h": 1550}
{"Compound": "Cn1cc(C(=O)O)c2ccc(N3CCC(OCc4c(-c5c(Cl)cccc5Cl)noc4C4CC4)CC3)cc21", "Readout units": "ng/mL", "concentration at 1 h": 121}

P: CCn1c(C(=O)O)cc2ccc(N3CCC(F)(COCc4c(-c5c(Cl)cccc5Cl)noc4C4CC4)CC3)cc21
Q: CCn1cc(C(=O)O)c2ccc(N3CCC(F)(COCc4c(-c5c(F)cccc5Cl)noc4C4CC4)CC3)cc21
R: O=C(O)c1cc(F)c2nc(N3C4CCC3CC(F)(COCc3c(-c5ccccc5OC(F)(F)F)noc3C3CC3)C4)sc2c1 (stereo not given)
[ask] Sequence the entries by concentration at 1 h, beginning with the highest number. Please, when replying, give the labels in the order that was requested.
[reply] R, Q, P
(R: 2340 ng/mL, Q: 656 ng/mL, P: 72 ng/mL)

###

# Test name: in vivo
# Assay conditions: Sprague-Dawley, rat, po, 3 mg/kg
Experimental endpoint: half-life (h)

{"Molecule": "O=C(O)c1cc(F)c2nc(N3C4CCC3CC(F)(COCc3c(-c5ccccc5OC(F)(F)F)noc3C3CC3)C4)sc2c1 (stereo not drawn)", "Readout units": "h", "Data value": 20.4}

I: Cn1cc(C(=O)O)c2ccc(N3CCC(OCc4c(-c5c(Cl)cccc5Cl)noc4C4CC4)CC3)cc21
II: CCn1cc(C(=O)O)c2ccc(N3CCC(F)(COCc4c(-c5c(F)cccc5Cl)noc4C4CC4)CC3)cc21
[ask] Pick the one with the larger half-life: I vs II Could you answer with the label of the item you picked?
[reply] I
